Molecular target: SARS-CoV-2 spike protein bearing furin mutation and truncation in retention sequence, on pseudoviral particles (SARS-CoV-2, UniProt P0DTC2 14-1255)
Assay: cell-based or functional assay
attribute measured: PV neutralization % (Ab 1 ug/mL) (%)
Give the number; % is assumed, so skip it.

Memo: YANG-1119 (antibody, V domains shown) VH: EVQLVESGGGLVKPGGSLRLSCAASGFTFSSYSMNWVRQAPGKGLEWVSSISTGSSYIFYADSVKGRFTISRDNAKNSLYLQMNSLRAEDTAVYYCAKTGDLPFFDYWGQGTLVTVSS VL: QSALTQPASVSGSPGQSITISCTGTSSDVGRYNYVSWYQQHPGKAPKLMIYEVSNRPSGVSNRFSGSKSGNTASLTISGLQAEDEADYYCSSYTSSSTMVFGGGTKLTVL , reported PV neutralization % (Ab 1 ug/mL): 99
